From: BindingDB's records for doi:10.1021/jm070276i

- ASSAY SYSTEM: UniProtKB Q8NER1
- TEST PROTOCOL: Ca2+ Influx Functional Assay for the Determination of in Vitro Activity.
Exercise: for every item that follows, state its recorded pEC50.
Value format note: pEC50 is -log10 of concentration (mol/L); just state the number.

Consider the molecule shown here: O=C(NCc1cc(F)c(N2[C@@H]3CC[C@H]2CC2(C3)OCCO2)cc1F)Nc1cccc2[nH]ncc12 What is its recorded pEC50?
7.09

Consider the molecule shown here: O=C(NCc1ccc(N2[C@@H]3CCC[C@H]2CC3)c(Br)c1)Nc1cccc2[nH]ncc12 What is its recorded pEC50?
7.36

Consider the molecule shown here: Cn1ncc2c(NC(=O)NCc3ccc(N4[C@@H]5CCC[C@H]4CC5)cc3Cc3ccccc3)cccc21 What is its recorded pEC50?
7.72

Consider the molecule shown here: CC(C)(C)CCc1cc(N2[C@@H]3CCC[C@H]2CC3)ccc1CNC(=O)Nc1cccc2[nH]ncc12 What is its recorded pEC50?
7.99

Consider the molecule shown here: Cc1cc(CNC(=O)Nc2cccc3[nH]ncc23)ccc1N1[C@@H]2CCC[C@H]1CC2 What is its recorded pEC50?
7.70

Consider the molecule shown here: Cc1cc(N2[C@@H]3CCC[C@H]2CC3)ccc1CNC(=O)Nc1cccc2[nH]ncc12 What is its recorded pEC50?
7.54

Consider the molecule shown here: O=C(NCc1ccc(N2[C@@H]3CCC[C@H]2CC3)c(F)c1F)Nc1cccc2[nH]ncc12 What is its recorded pEC50?
7.59

Consider the molecule shown here: O=C(NCc1ccc(N2[C@@H]3CCC[C@H]2CC3)c(Cl)c1)Nc1cccc2[nH]ncc12 What is its recorded pEC50?
7.69

Consider the molecule shown here: CCN1CCc2cc(CNC(=O)Nc3cccc4[nH]ncc34)ccc21 What is its recorded pEC50?
6.55

Consider the molecule shown here: Cn1c2ccccc2c2cc(CNC(=O)Nc3cccc4[nH]ncc34)ccc21 What is its recorded pEC50?
6.04

Consider the molecule shown here: O=C(NCc1ccc(N2[C@@H]3CCC[C@H]2CC3)c(F)c1)Nc1cccc2[nH]ncc12 What is its recorded pEC50?
7.83

* * *

Exercise: for every item that follows, state its recorded EC50.
- ASSAY SYSTEM: Transient receptor potential cation channel subfamily V member 1 (Homo sapiens)
- TEST PROTOCOL: Ca2+ Influx Functional Assay for the Determination of in Vitro Activity.
A number alone suffices; assume nM.

For Transient receptor potential cation channel subfamily V member 1 (Homo sapiens), provide EC50 of O=C(NCc1cc(F)c(N2[C@@H]3CCC[C@H]2CC3)c(F)c1)Nc1cccc2[nH]ncc12 please.
12.6

For Transient receptor potential cation channel subfamily V member 1 (Homo sapiens), provide EC50 of O=C1C[C@H]2CC[C@@H](C1)N2c1cc(F)c(CNC(=O)Nc2cccc3[nH]ncc23)cc1F please.
157

For Transient receptor potential cation channel subfamily V member 1 (Homo sapiens), provide EC50 of O=C(NCc1ccc(N2[C@@H]3CCC[C@H]2CC3)c(C(F)(F)F)c1)Nc1cccc2[nH]ncc12 please.
26.9

For Transient receptor potential cation channel subfamily V member 1 (Homo sapiens), provide EC50 of CC(C)c1cc(N2[C@@H]3CCC[C@H]2CC3)ccc1CNC(=O)Nc1cccc2[nH]ncc12 please.
35.3

* * *

- ASSAY SYSTEM: Transient receptor potential cation channel subfamily V member 1 (Homo sapiens)
- TEST PROTOCOL: Ca2+ Influx Functional Assay for the Determination of in Vitro Activity.
- APPLIED CONDITIONS: pH 7.4; 22 °C
QUANTITY: pEC50
Value format note: pEC50 is -log10 of concentration (mol/L); just state the number.

Consider the molecule shown here: O=C(NCc1ccc(N2CCCCCC2)cc1Cl)Nc1cccc2cnccc12 What is its recorded pEC50?
8.28

Consider the molecule shown here: O=C(NCc1ccc(N2CCOCC2)cc1)Nc1cccc2cnccc12 What is its recorded pEC50?
7.04

Consider the molecule shown here: O=C(NCc1ccc(N2CCCCCC2)cc1C(F)(F)F)Nc1cccc2[nH]ncc12 What is its recorded pEC50?
6.88

Consider the molecule shown here: CN(C)c1ccc(CNC(=O)Nc2cccc3cnccc23)cc1 What is its recorded pEC50?
6.80

* * *

- ASSAY SYSTEM: Transient receptor potential cation channel subfamily V member 1 (Homo sapiens)
- TEST PROTOCOL: Ca2+ Influx Functional Assay for the Determination of in Vitro Activity.
- APPLIED CONDITIONS: pH 7.4; 22 °C
- Protocol: The functional antagonist activity of compounds at the TRPV1 receptor was determined with a Ca2+ influx assay by measuring the effect on capsaicin (0.05 uM) evoked increase in intracellular Ca2+ levels using cells stably expressing recombinant human TRPV1. All compounds were tested over an 11-point half-log concentration range. The fluorescent Ca2+ chelating dye fluo-4 was used as an indicator of the relative levels of Ca2+ in a 96-well format using a fluorescence imaging plate reader. […]
pEC50: −log10 of the molar value.
Lab note: compare pEC50 against 8. Equal or greater, write yes (1). Smaller, write no (0).

Answer whether pEC50 of O=C(NCc1ccc(N2CCCCCC2)c(C(F)(F)F)c1)Nc1cccc2cnccc12 is greater than or equal to 8.
yes (1)

Answer whether pEC50 of O=C(NCc1ccc(N2[C@@H]3CCC[C@H]2CC3)cc1Cl)Nc1cccc2[nH]ncc12 is greater than or equal to 8.
no (0)

Answer whether pEC50 of O=C(NCc1ccc(N2CCCCCCC2)cc1)Nc1cccc2cnccc12 is greater than or equal to 8.
yes (1)

Answer whether pEC50 of O=C(NCc1ccc(N2[C@@H]3CCC[C@H]2CC3)cc1)Nc1cccc2cnccc12 is greater than or equal to 8.
yes (1)

Answer whether pEC50 of O=C(NCc1ccc(N2[C@@H]3CCC[C@H]2CC3)cc1C(F)(F)F)Nc1cccc2[nH]ncc12 is greater than or equal to 8.
no (0)

Answer whether pEC50 of CC1CN(c2ccc(CNC(=O)Nc3cccc4cnccc34)cc2)CC(C)O1 (stereo unspecified) is greater than or equal to 8.
no (0)

Answer whether pEC50 of O=C(NCc1ccc(N2CCCCCC2)c(F)c1)Nc1cccc2cnccc12 is greater than or equal to 8.
yes (1)

Answer whether pEC50 of O=C(NCc1ccc(N2CCCCCC2)cc1C(F)(F)F)Nc1cccc2cnccc12 is greater than or equal to 8.
yes (1)

Answer whether pEC50 of O=C(NCc1ccc(N2CCOCC2)cc1)Nc1cccc2cnc(Cl)cc12 is greater than or equal to 8.
no (0)

Answer whether pEC50 of O=C(NCc1ccc(C(F)(F)F)cc1)Nc1cccc2cnccc12 is greater than or equal to 8.
yes (1)

Answer whether pEC50 of Cc1cc2c(NC(=O)NCc3ccc(N4Cc5ccccc5C4)c(F)c3)cccc2cn1 is greater than or equal to 8.
no (0)

Answer whether pEC50 of O=C(NCc1ccc(N2CCCCCC2)cc1)Nc1cccc2cnccc12 is greater than or equal to 8.
yes (1)

Answer whether pEC50 of O=C(NCc1cc(F)c(N2CCCCCC2)c(F)c1)Nc1cccc2[nH]ncc12 is greater than or equal to 8.
no (0)

Answer whether pEC50 of O=C(NCc1ccc(N2[C@@H]3CCC[C@H]2CC3)cc1)Nc1cccc2[nH]ncc12 is greater than or equal to 8.
no (0)

Answer whether pEC50 of Cc1cc2c(NC(=O)NCc3ccc(N4CCCCCC4)cc3)cccc2cn1 is greater than or equal to 8.
yes (1)

Answer whether pEC50 of O=C(NCc1ccc(N2CCCCCC2)cc1Cl)Nc1cccc2[nH]ncc12 is greater than or equal to 8.
no (0)

* * *

- ASSAY SYSTEM: Transient receptor potential cation channel subfamily V member 1 (Homo sapiens, UniProt Q8NER1)
- Sequence (Q8NER1 whole entry): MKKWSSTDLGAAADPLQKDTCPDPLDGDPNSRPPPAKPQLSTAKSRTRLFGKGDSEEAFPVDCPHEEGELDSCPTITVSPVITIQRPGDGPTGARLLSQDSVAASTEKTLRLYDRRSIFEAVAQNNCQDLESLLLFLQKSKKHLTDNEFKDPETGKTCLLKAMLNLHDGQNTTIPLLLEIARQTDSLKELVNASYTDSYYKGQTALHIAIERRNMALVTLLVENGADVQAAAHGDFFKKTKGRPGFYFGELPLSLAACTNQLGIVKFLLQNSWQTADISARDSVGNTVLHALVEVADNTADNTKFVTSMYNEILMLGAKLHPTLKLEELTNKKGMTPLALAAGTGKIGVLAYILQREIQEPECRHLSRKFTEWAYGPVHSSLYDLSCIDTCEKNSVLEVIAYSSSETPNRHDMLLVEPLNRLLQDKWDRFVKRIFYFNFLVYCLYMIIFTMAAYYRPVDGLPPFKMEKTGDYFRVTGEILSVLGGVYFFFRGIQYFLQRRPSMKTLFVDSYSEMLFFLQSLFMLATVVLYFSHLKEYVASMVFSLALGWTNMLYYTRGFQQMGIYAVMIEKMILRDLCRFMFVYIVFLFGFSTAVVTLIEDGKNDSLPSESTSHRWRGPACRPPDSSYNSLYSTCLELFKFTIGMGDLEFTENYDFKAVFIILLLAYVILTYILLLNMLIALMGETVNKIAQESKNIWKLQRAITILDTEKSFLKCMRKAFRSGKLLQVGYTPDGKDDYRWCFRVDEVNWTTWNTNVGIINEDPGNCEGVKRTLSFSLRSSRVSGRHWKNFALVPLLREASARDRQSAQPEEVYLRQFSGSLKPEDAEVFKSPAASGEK
- TEST PROTOCOL: Ca2+ Influx Functional Assay for the Determination of in Vitro Activity.
- APPLIED CONDITIONS: pH 7.4; 22 °C
QUANTITY: EC50

Consider the compound shown here: CC1CCN(c2ccc(CNC(=O)Nc3cccc4cnccc34)cc2)CC1 What is its recorded EC50?
9.3 nM

Consider the compound shown here: O=C(NCc1ccc(N2CCCCCC2)c(F)c1)Nc1cccc2[nH]ncc12 What is its recorded EC50?
14.2 nM

Consider the compound shown here: Nc1cc2c(NC(=O)NCc3ccc(N4CCCCCC4)cc3)cccc2cn1 What is its recorded EC50?
9.8 nM

Consider the compound shown here: O=C(NCc1cc(F)c(N2CCOCC2)c(F)c1)Nc1cccc2cnccc12 What is its recorded EC50?
9.3 nM

Consider the compound shown here: O=C(NCc1ccc(N2CCCCC2)cc1)Nc1cccc2cnccc12 What is its recorded EC50?
7.3 nM
